testedTarget: Calmodulin-1 (Homo sapiens) (UniProt P0DP23)
experimentalDetails: CALM1 binders on microarrays, EGTA buffer, profiling panel, biochemical, small-molecule microarray, Cy5-labelled CALM1 (AID 1111);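 also: labelled calmodulin applied in Tris saline Tween buffer holding calcium plus EGTA and DTT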
settings: Cy5-CALM1 binding fluorescence, higher = more signal
measuredProperty: composite z-score
Give your answer as a number; write no unit.

Incoming: Item under review: CC(C)C[C@@H]1NC(=O)[C@H]2C[C@@H](C(=O)NCCCCCNC(=O)CS)[C@@H](c3cccc(OCCO)c3)N2C1=O . Reported composite z-score?
Outgoing: 0.193

Incoming: Same thing, different compound: O=C1O[C@@H](c2ccccc2)[C@@H](c2ccccc2)N2[C@@H](c3ccc(OCCO)cc3)[C@]3(C(=O)Nc4ccccc43)[C@@H](C(=O)Nc3nc4ccccc4s3)[C@H]12
Outgoing: 1.67

Incoming: Same thing, different compound: CC(C)C(O)C1C=CC2C(=O)N(c3ccccc3)C(=O)C2N1Nc1ccc(C#N)cc1 (stereo unspecified)
Outgoing: 0.875

Incoming: Same thing, different compound: C=CCC(OC(C)=O)[C@@H]1[C@@H](N(Cc2ccc(-c3ccccc3)cc2)C(=O)Cc2ccc(OC)cc2)c2cc(OCCCO)ccc2N1C(=O)c1ccc2ccccc2n1 (stereo partly specified)
Outgoing: 0.143

Incoming: Same thing, different compound: COCCCNC(=O)[C@@]1(CCC(=O)OC(C)(C)C)N=C(c2ccc(OCCCO)cc2)O[C@H]1c1ccccc1CN=[N+]=[N-]
Outgoing: 1.39

Incoming: Same thing, different compound: C=CCOC(=O)[C@@H]1[C@H]2C(=O)O[C@H](c3ccccc3)[C@H](c3ccccc3)N2[C@H](c2ccc(OCCOC(=O)[C@@H]3C[C@@H]4C(=O)N[C@@H](Cc5ccccc5)C(=O)N4[C@@H]3c3cccc(OCCO)c3)cc2)[C@@]12C(=O)Nc1ccc(I)cc12
Outgoing: -0.0116

Incoming: Same thing, different compound: COC(=O)[C@@]1(Cc2ccccc2)[C@H]2c3cc(C(=O)N4CCCC4)n(C)c3C[C@H]2CN1C(=O)c1ccccc1
Outgoing: 2.57

Incoming: Same thing, different compound: O=C1C[C@]2(c3ccc([N+](=O)[O-])cc3)C(=O)N(CC(F)(F)F)c3cc(CO)ccc3[C@H]2N1CC12CC3CC(CC(C3)C1)C2
Outgoing: -0.28

Incoming: Same thing, different compound: CC(C)(C)OC(=O)CC[C@@]1(C(=O)NCCN2CCOCC2)N=C(c2ccc(OCCCO)cc2)O[C@@H]1c1ccccc1
Outgoing: 1.59

Incoming: Same thing, different compound: C[C@]1(C(=O)NCc2ccccc2)c2ccccc2C(=O)N(Cc2ccc(OC(F)(F)F)cc2)[C@H]1c1ccc(CO)cc1
Outgoing: -0.119

Incoming: Same thing, different compound: [N-]=[N+]=NCc1ccccc1C[C@]1(C(=O)O)N=C(c2ccc(OCCCO)cc2)O[C@H]1c1ccccc1
Outgoing: 1.17
